- Tested on: LPS-induced microglia activation
- Assay summary: Image-based assay of LPS-induced microglia activation (HTS and dose response)
- Type: cell-based, rat
- Test context: Rattus norvegicus, Microglia, primary microglia HTS, LPS stimulation, compounds at 10 μM; read-out: LPS % inhibition
Structures can show the parent of a compound that is named as a salt.
Please note: True applies when inhibition at 10 µM is 30% or greater, and False applies otherwise.

Molecule | Class name
CCN1CC(CCN2CCOCC2)C(c2ccccc2)(c2ccccc2)C1=O (centres unmarked) [Doxapram Hydrochloride] | False
C[C@]12CCC(=O)C=C1[C@@H]1C[C@@H]1[C@H]1[C@@H]3[C@@H]4C[C@@H]4[C@@]4(CCC(=O)O4)[C@@]3(C)CC[C@@H]12 | False
N=c1ccn2c(n1)O[C@H]1[C@H](O)[C@@H](CO)O[C@H]12 [Ancitabine Hydrochloride] | False
CN1CCN(C(c2ccccc2)c2ccccc2)CC1 | True
C[C@H]1[C@@H](O)O[C@@H]2O[C@@]3(C)CC[C@H]4[C@H](C)CC[C@@H]1[C@@]24OO3 | False
CCCCOC(=O)c1ccccc1C(=O)OCCCC [Dibutyl Phthalate] | False
COCCCOc1cc(C[C@@H](C[C@H](N)[C@@H](O)C[C@H](C(=O)NCC(C)(C)C(N)=O)C(C)C)C(C)C)ccc1OC | False
COc1ccc2c(c1)c(CC(=O)OCC(=O)O)c(C)n2C(=O)c1ccc(Cl)cc1 | False
NCCCNCCSP(=O)(O)O | False
CCC(=O)O[C@H]1[C@H](O[C@@H]2[C@@H](C)[C@H](O[C@H]3C[C@@](C)(OC)[C@@H](O)[C@H](C)O3)[C@@H](C)C(=O)O[C@H](CC)[C@@](C)(O)[C@H](O)[C@@H](C)C(=O)[C@H](C)C[C@@]2(C)O)O[C@H](C)C[C@@H]1N(C)C [Erythromycin Propionate] | False
CN(C)c1nc(N(C)C)nc(N(C)C)n1 | False
N=C(N)c1ccc(/N=N/Nc2ccc(C(=N)N)cc2)cc1 | False
Cc1nccn1CC1CCc2c(c3ccccc3n2C)C1=O (centres unmarked) | True
O=C(O)c1cc(=O)c2c(OCC(O)COc3cccc4oc(C(=O)O)cc(=O)c34)cccc2o1 | False
O=C1c2c(O)cccc2C([C@@H]2O[C@H](CO)[C@@H](O)[C@H](O)[C@H]2O)c2cc(CO)cc(O)c21 (some centres unmarked) | False
CC(CN(C)C)CN1c2ccccc2Sc2ccccc21 (centres unmarked) | True
O=C(Nc1ccccc1)OCC(CN1CCCCC1)OC(=O)Nc1ccccc1 (centres unmarked) [Diperodon Hydrochloride] | False
CC(=O)Nc1ccc(C(=O)O)cc1 | True
CC(C)Nc1cccnc1N1CCN(C(=O)c2cc3cc(NS(C)(=O)=O)ccc3[nH]2)CC1 | False
CC(=O)OCC[N+](C)(C)C | False
CCOC(=O)C1=C(COCCN)NC(C)=C(C(=O)OC)C1c1ccccc1Cl (centres unmarked) | True
N=C(N)N1CCc2ccccc2C1 | False
CCc1cn([C@H]2C[C@H](O)[C@@H](CO)O2)c(=O)[nH]c1=O | False

Value source: patent US20210330611A1
